# Test system: HepG2
# TEST_DESCRIPTION: Cytotoxicity against human HepG2 cells assessed as cell growth inhibition measured after 24 hrs by MTT assay
# Assay type: functional, cell-based
# CONDITION_LABEL: HepG2, 24 h
pIC50: −log10 of the molar value.
# Lookup of reported pIC50 keyed by entry

Recorded pIC50 for C[C@@H]1CC[C@@]2(OC1)O[C@H]1C[C@H]3[C@@H]4CC=C5C[C@@H](OC(=O)/C=C\C(=O)N6CCCC6)CC[C@]5(C)[C@H]4CC[C@]3(C)[C@H]1[C@@H]2C , please?
< 5.00

---
Please look up its pIC50: C[C@@H]1CC[C@@]2(OC1)O[C@H]1C[C@H]3[C@@H]4CC=C5C[C@@H](OC(=O)c6ccccc6C(=O)N6CCNCC6)CC[C@]5(C)[C@H]4CC[C@]3(C)[C@H]1[C@@H]2C
5.12

# get_value(readout='pIC50', item= C[C@@H]1CC[C@@]2(OC1)O[C@H]1C[C@H]3[C@@H]4CC=C5C[C@@H](OC(=O)/C=C\C(=O)N6CCOCC6)CC[C@]5(C)[C@H]4CC[C@]3(C)[C@H]1[C@@H]2C )
< 5.00

Can you look up the measured pIC50 of CCN(CC)C(=O)c1ccccc1C(=O)O[C@H]1CC[C@@]2(C)C(=CC[C@H]3[C@@H]4C[C@@H]5O[C@]6(CC[C@@H](C)CO6)[C@@H](C)[C@@H]5[C@@]4(C)CC[C@@H]32)C1 for me?
< 5.00

Fill in the blank: the reported pIC50 of CCN(CC)C(=O)/C=C\C(=O)O[C@H]1CC[C@@]2(C)C(=CC[C@H]3[C@@H]4C[C@@H]5O[C@]6(CC[C@@H](C)CO6)[C@@H](C)[C@@H]5[C@@]4(C)CC[C@@H]32)C1 is ____.
< 5.00

----------
# System: HepG2
# TEST_DESCRIPTION: Cytotoxicity against human HepG2 cells assessed as cell growth inhibition measured after 24 hrs by MTT assay
# Format: functional, cell-based
# CONDITION_LABEL: HepG2, 24 h
pIC50: −log10 of the molar value.
The entries below come with measured pIC50 values attached.

Previously resolved entries follow.
Reported pIC50 for C[C@@H]1CC[C@@]2(OC1)O[C@H]1C[C@H]3[C@@H]4CC=C5C[C@@H](OC(=O)CCCC(=O)N6CCCC6)CC[C@]5(C)[C@H]4CC[C@]3(C)[C@H]1[C@@H]2C : what is it?
5.08

# input compound: C[C@@H]1CC[C@@]2(OC1)O[C@H]1C[C@H]3[C@@H]4CC=C5C[C@@H](OC(=O)CCCC(=O)N6CCc7ccccc7C6)CC[C@]5(C)[C@H]4CC[C@]3(C)[C@H]1[C@@H]2C ; wanted: its pIC50
< 5.00

What value of measured pIC50 is listed for C[C@@H]1CC[C@@]2(OC1)O[C@H]1C[C@H]3[C@@H]4CC=C5C[C@@H](OC(=O)CCC(=O)N6CCN(S(=O)(=O)c7ccccc7)CC6)CC[C@]5(C)[C@H]4CC[C@]3(C)[C@H]1[C@@H]2C ?
< 5.00

Next:
What does the record list as pIC50 for CCN(CC)C(=O)CCCC(=O)O[C@H]1CC[C@@]2(C)C(=CC[C@H]3[C@@H]4C[C@@H]5O[C@]6(CC[C@@H](C)CO6)[C@@H](C)[C@@H]5[C@@]4(C)CC[C@@H]32)C1 ?
< 5.00

Could you share which pIC50 value was measured for C[C@@H]1CC[C@@]2(OC1)O[C@H]1C[C@H]3[C@@H]4CC=C5C[C@@H](OC(=O)c6ccccc6C(=O)N6CCOCC6)CC[C@]5(C)[C@H]4CC[C@]3(C)[C@H]1[C@@H]2C ?
< 5.00
